Source listed as paper PMC7186840.

# Study System: UniProt Q5F4T5
pKd: −log10 of the molar value.
Property Measured: pKd

• C[C@H](CCC(=O)O)[C@H]1CC[C@H]2[C@@H]3[C@H](O)C[C@@H]4C[C@H](O)CC[C@]4(C)[C@H]3C[C@H](O)[C@]12C [CA, cholic acid] = 1.89

---

# Study System: GII.17 Saitama/T87 VLPs (Norovirus GII/Hu/JP/2002/GII.P16_GII.17/Saitama/T87)
# Construct: virus-like particles of VP1, arginine tail present; donated by G. Hansman
# Method: biochemical
Property Measured: Kd (mM)

* C[C@H](CCC(=O)O)[C@H]1CC[C@H]2[C@@H]3[C@H](O)C[C@@H]4C[C@H](O)CC[C@]4(C)[C@H]3C[C@H](O)[C@]12C | 6.6

---

# Study System: GII.4 MI001 P dimers (Norovirus Hu/GII.4/MI001/2011/USA)
# Construct: [U-2H,15N]-labelled
# Method: 1H, […] TROSY HSQC CSP titration
pKd: −log10 of the molar value.
Property Measured: pKd

* C[C@H](CCC(=O)O)[C@H]1CC[C@H]2[C@@H]3[C@H](O)C[C@@H]4C[C@H](O)CC[C@]4(C)[C@H]3C[C@H](O)[C@]12C | 1.95

---

# Study System: GI.1 Norwalk VLPs (Norovirus GI)
# Construct: virus-like particles of VP1, arginine tail present; donated by G. Hansman
# Method: STD NMR titration, single saturation time […] s
# Test Context: read-out: K D app; pH 7.3, 277 K, 10 % D2O; apparent, ligand aggregation
Property Measured: Kd

• C[C@H](CCC(=O)O)[C@H]1CC[C@H]2[C@@H]3[C@H](O)C[C@@H]4C[C@H](O)CC[C@]4(C)[C@H]3C[C@H](O)[C@]12C [CA, cholic acid] = 12.2 mM

---

# Study System: GII.17 Kawasaki308 P dimers (Norovirus Hu/GII/JP/2015/GII.P17_GII.17/Kawasaki308)
# Construct: MIL(ProS)V(ProS)A methyl-labelled
# Method: methyl TROSY CSP titration
# Excerpt: methyl TROSY CSP titration on GII.17 Kawasaki308 P dimers
pKd: −log10 of the molar value.
Property Measured: pKd

• C[C@H](CCC(=O)O)[C@H]1CC[C@H]2[C@@H]3[C@H](O)C[C@@H]4C[C@H](O)CC[C@]4(C)[C@H]3C[C@H](O)[C@]12C = 1.70

---

Each entry below lists one item and its recorded Kd value.
# Study System: GII.4 Saga P dimers (Norovirus Hu/GII-4/Saga4/2006/JP)
# Construct: isotope-labelled, non-deamidated
# Method: 1H, […] TROSY HSQC CSP titration
Property Measured: Kd (mM)

* C[C@H](CCC(=O)NCC(=O)O)[C@H]1CC[C@H]2[C@@H]3[C@H](O)C[C@@H]4C[C@H](O)CC[C@]4(C)[C@H]3CC[C@]12C | 1.5
* CC1(C)[C@@H](O[C@H]2O[C@H](C(=O)O)[C@@H](O)[C@H](O)[C@H]2O[C@@H]2O[C@H](C(=O)O)[C@@H](O)[C@H](O)[C@H]2O)CC[C@]2(C)[C@H]3C(=O)C=C4[C@@H]5C[C@@](C)(C(=O)O)CC[C@]5(C)CC[C@@]4(C)[C@]3(C)CC[C@@H]12 | 13.8
* C[C@H](CCC(=O)O)[C@H]1CC[C@H]2[C@@H]3[C@H](O)C[C@@H]4C[C@H](O)CC[C@]4(C)[C@H]3C[C@H](O)[C@]12C | 10
